- measuredTarget: Mu-type opioid receptor (Rattus norvegicus)
- Sequence (P33535 whole entry): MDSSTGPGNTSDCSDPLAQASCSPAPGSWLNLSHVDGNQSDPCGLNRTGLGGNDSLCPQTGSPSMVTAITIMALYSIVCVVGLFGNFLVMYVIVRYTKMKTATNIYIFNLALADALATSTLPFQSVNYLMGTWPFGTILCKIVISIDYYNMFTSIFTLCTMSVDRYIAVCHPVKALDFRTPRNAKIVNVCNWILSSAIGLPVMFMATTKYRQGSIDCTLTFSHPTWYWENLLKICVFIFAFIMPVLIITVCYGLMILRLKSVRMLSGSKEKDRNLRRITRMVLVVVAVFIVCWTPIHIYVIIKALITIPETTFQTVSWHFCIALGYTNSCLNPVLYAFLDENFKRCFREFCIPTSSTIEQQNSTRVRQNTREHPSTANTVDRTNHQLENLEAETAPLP
pKi: −log10 of the molar value. Where a SMILES comes first, the peptide text is derived from it. [ ]: non-standard residue; d: D form. The star is where a group is joined. Dmt = Cc1cc(O)cc(C)c1C[C@H](N)C(=O)O; NHBn = c1ccc(CN*)cc1
Given measured pKi, output class 1 if it is greater than or equal to 9 and class 0 if not.

Record excerpt, results attached:
| molecule | category |
| --- | --- |
| N[C@@H](Cc1ccc(O)cc1)C(=O)N1CCC[C@H]1C(=O)N[C@@H](Cc1ccccc1)C(=O)NCc1ccccc1 (H-Tyr-Pro-Phe-NHBn) | class 0 |
| Cc1cc(O)cc(C)c1C[C@H](N)C(=O)N1CCC[C@H]1C(=O)N[C@@H](Cc1ccccc1)C(=O)NCc1ccccc1 (H-[Dmt]-Pro-Phe-NHBn) | class 1 |
| Cc1cc(O)cc(C)c1C[C@H](N)C(=O)N1CCC[C@H]1C(=O)N[C@@H](Cc1ccccc1)C(=O)Nc1cccnc1 | class 1 |
| N[C@@H](Cc1ccc(O)cc1)C(=O)N1CCC[C@H]1C(=O)N[C@@H](Cc1ccccc1)C(=O)Nc1cccc2cccnc12 | class 0 |

Alright, here's another molecule for you.
Exam item: decide whether the reported pKi for `N[C@@H](Cc1ccc(O)cc1)C(=O)N1CCC[C@H]1C(=O)N[C@@H](Cc1ccccc1)C(=O)Nc1ccccn1` is at least 9. class 0

====

Provide the recorded Ki for the entries that follow.
- measuredTarget: Delta-type opioid receptor (Rattus norvegicus, UniProt P33533)
- Sequence (P33533 whole entry): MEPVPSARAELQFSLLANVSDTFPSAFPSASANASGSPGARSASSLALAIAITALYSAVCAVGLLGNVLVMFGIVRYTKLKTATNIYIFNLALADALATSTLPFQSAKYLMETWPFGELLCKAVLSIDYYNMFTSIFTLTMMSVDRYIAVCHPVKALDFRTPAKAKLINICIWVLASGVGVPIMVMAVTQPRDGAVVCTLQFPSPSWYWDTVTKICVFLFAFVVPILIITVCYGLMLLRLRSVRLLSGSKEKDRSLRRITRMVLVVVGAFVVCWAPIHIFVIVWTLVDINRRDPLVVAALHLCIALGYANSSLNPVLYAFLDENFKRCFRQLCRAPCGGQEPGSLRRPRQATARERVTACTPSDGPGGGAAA
- assay: Binding affinity against rat brain opioid receptor delta 1 using [3H]DPDPE radioligand
Where a SMILES comes first, the peptide text is derived from it. The star is where a group is joined. NHPhenethyl = c1ccc(CCN*)cc1
One number for each entry, in µM.

Below, each entry is followed by its recorded Ki result.
| compound | readoutUnits | Ki |
| --- | --- | --- |
| N[C@@H](Cc1ccc(O)cc1)C(=O)N1CCC[C@H]1C(=O)N[C@@H](Cc1ccccc1)C(=O)NCCc1ccccc1 (H-Tyr-Pro-Phe-NHPhenethyl) | µM | 4.31 |
| Cc1cc(O)cc(C)c1C[C@H](N)C(=O)N1CCC[C@H]1C(=O)N[C@@H](Cc1ccccc1)C(=O)Nc1cccc2ncccc12 | µM | 0.03 |

Ki lookup needed for `N[C@@H](Cc1ccc(O)cc1)C(=O)N1CCC[C@H]1C(=O)N[C@@H](Cc1ccccc1)C(=O)NC1CCCCC1` , thanks. 8.11

====

- measuredTarget: Opioid receptors; mu & delta (Rattus norvegicus) (UniProt P33533+P33535)
- assay: Ratio of binding affinity against rat brain delta opioid receptor to that of mu opioid receptor
Where a SMILES comes first, the peptide text is derived from it. The star is where a group is joined. NHPhenethyl = c1ccc(CCN*)cc1; NHBn = c1ccc(CN*)cc1; NHtBu = CC(C)(C)N*
Field 'label' (enum: True / False). Set to True when Ratio is strictly under 300; else False.

| compound | measuredTarget | category |
| --- | --- | --- |
| Cc1cc(O)cc(C)c1C[C@H](N)C(=O)N1CCC[C@H]1C(=O)N[C@@H](Cc1ccccc1)C(=O)Nc1cccc2ccccc12 | Opioid receptors; mu & delta (Rattus norvegicus) (UniProt P33533+P33535) | True |
| N[C@@H](Cc1ccc(O)cc1)C(=O)N1CCC[C@H]1C(=O)N[C@@H](Cc1ccccc1)C(=O)Nc1cnc2ccccc2c1 | Opioid receptors; mu & delta (Rattus norvegicus) (UniProt P33533+P33535) | False |
| NC(=O)[C@H](Cc1ccccc1)NC(=O)[C@@H]1CCCN1C(=O)[C@@H](N)Cc1ccc(O)cc1 (H-Tyr-Pro-Phe-NH2) | Opioid receptors; mu & delta (Rattus norvegicus) (UniProt P33533+P33535) | False |
| N[C@@H](Cc1ccc(O)cc1)C(=O)N1CCC[C@H]1C(=O)N[C@@H](Cc1ccccc1)C(=O)NCc1ccccc1 (H-Tyr-Pro-Phe-NHBn) | Opioid receptors; mu & delta (Rattus norvegicus) (UniProt P33533+P33535) | True |

Does this compound meet the criterion Ratio < 300? N[C@@H](Cc1ccc(O)cc1)C(=O)N1CCC[C@H]1C(=O)N[C@@H](Cc1ccccc1)C(=O)NCCc1ccccc1 (H-Tyr-Pro-Phe-NHPhenethyl) False

# repeat for `N[C@@H](Cc1ccc(O)cc1)C(=O)N1CCC[C@H]1C(=O)N[C@@H](Cc1ccccc1)C(=O)Nc1ccc2ncccc2c1` True

Okay, and `N[C@@H](Cc1ccc(O)cc1)C(=O)N1CCC[C@H]1C(=O)N[C@@H](Cc1ccccc1)C(=O)NC12C[C@H]3C[C@@H](C1)C[C@@H](C2)C3` ? True

Follow-up entry: CC(C)(C)NC(=O)[C@H](Cc1ccccc1)NC(=O)[C@@H]1CCCN1C(=O)[C@@H](N)Cc1ccc(O)cc1 (H-Tyr-Pro-Phe-NHtBu) False
